# STUDY_SYSTEM: Human PI3K alpha (Homo sapiens)
# Construct: His (N); host or cells: SF9 insect cells (baculovirus)
# Sequence (P42336 whole entry): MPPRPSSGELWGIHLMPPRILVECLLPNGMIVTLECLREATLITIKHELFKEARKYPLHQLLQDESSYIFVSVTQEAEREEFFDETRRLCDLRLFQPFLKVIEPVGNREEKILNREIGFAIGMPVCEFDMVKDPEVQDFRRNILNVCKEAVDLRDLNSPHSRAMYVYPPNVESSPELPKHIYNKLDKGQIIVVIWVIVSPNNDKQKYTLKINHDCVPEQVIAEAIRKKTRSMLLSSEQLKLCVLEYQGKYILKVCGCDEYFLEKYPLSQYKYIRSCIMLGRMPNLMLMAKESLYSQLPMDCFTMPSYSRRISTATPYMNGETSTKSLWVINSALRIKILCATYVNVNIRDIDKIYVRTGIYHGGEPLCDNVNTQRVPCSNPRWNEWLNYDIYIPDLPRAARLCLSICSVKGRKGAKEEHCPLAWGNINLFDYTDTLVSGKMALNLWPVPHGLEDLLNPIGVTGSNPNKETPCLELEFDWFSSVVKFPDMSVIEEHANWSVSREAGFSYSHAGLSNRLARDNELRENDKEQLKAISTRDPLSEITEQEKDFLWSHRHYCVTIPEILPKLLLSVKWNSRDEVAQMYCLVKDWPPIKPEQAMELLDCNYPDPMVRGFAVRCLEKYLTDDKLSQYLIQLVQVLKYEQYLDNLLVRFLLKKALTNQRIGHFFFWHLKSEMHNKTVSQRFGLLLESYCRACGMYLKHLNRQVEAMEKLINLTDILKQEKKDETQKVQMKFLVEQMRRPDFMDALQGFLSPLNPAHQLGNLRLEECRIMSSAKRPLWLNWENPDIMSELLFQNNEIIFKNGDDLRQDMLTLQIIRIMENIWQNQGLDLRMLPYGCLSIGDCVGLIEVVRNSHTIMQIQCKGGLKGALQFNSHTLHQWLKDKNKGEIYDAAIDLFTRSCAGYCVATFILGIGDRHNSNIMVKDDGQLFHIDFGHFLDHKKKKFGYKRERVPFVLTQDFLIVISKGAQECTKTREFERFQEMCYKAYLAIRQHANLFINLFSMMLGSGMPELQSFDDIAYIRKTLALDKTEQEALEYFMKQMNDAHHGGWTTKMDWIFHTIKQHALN
# Sequence (P27986 whole entry partner): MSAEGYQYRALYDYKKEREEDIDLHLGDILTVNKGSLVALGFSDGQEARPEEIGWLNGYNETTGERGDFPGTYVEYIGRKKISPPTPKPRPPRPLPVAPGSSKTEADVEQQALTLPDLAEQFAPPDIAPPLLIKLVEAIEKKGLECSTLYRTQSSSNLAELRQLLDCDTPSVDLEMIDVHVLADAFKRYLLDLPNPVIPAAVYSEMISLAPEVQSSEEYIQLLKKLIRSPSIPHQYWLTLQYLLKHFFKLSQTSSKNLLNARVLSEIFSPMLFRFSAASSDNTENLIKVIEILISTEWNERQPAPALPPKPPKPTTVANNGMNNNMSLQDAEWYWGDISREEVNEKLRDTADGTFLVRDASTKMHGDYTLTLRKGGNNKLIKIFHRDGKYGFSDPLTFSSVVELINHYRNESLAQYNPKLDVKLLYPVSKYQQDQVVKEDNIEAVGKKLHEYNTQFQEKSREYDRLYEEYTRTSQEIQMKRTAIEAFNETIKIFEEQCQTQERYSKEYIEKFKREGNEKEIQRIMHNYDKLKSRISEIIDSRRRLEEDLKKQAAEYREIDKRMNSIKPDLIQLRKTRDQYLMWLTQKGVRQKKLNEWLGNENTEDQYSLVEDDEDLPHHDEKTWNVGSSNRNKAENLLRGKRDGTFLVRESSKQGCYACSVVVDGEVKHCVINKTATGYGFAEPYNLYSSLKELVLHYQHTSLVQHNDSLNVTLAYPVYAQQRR
# TEST_PROTOCOL: Human PI3K alpha enzyme assay (HTRF)
# Assay type: biochemical
# ASSAY_CONDITIONS: concentration not given; b1387 states 1.1 μM for PI3K α and β; read-out: p110 alpha Percent Inhibition
# cutoff 30% applies to inhibition at 1.1 µM; >= gives Yes, < gives No

Consider the worked cases shown below.
# COMPOUND, ASSIGNED_LABEL
measured = [
    ("OC(c1ccc(F)c(F)c1)c1cc(-c2ccncc2)sc1-c1nnc[nH]1 (centres unmarked)", "No"),
    ("CC(=O)Nc1cc(-c2cc([C@@H](c3ccc(Cl)cc3)N3CCC3)c(-c3nnc[nH]3)s2)ccn1 (single isomer, unassigned)", "Yes"),
    ("CC(=O)Nc1cc(-c2sc(-c3nnc[nH]3)c(S(=O)(=O)c3ccc(Cl)cc3)c2C#N)ccn1", "Yes"),
    ("COc1cc(C(O)c2cc(-c3ccnnc3)sc2-c2nnc[nH]2)c(F)cc1Cl (centres unmarked)", "No"),
    ("COc1ccc2ccc(Cc3nc(N4CCOCC4)sc3C(=O)O)cc2c1", "Yes"),
    ("Cc1cc(-c2cc(C(c3ccc(Cl)cc3)N(C)C)c(-c3nnc[nH]3)s2)ccn1 (centres unmarked)", "No"),
    ("O=C(O)c1sc(N2CCOCC2)nc1Cc1cc(Cl)c(Cl)cc1F", "No"),
    ("Cc1ccc(C(O)c2cc(-c3ccncc3)sc2-c2nnc[nH]2)cc1C (centres unmarked)", "No"),
    ("OC(c1cccc(C(F)(F)F)c1)c1cc(-c2ccncc2)sc1-c1nnc[nH]1 (centres unmarked)", "No"),
    ("COC(c1ccc(Cl)cc1)c1cc(-c2ccnc(NC(C)=O)c2)sc1-c1nnc[nH]1 (centres unmarked)", "Yes"),
]

Determine whether this compound has inhibition at 1.1 µM no lower than 30%: CC(=O)Nc1cc(-c2cc(C(c3ccc(Cl)cc3)N3CCN(C)CC3)c(-c3nnc[nH]3)s2)ccn1 (centres unmarked)
Yes

Determine whether this compound has inhibition at 1.1 µM no lower than 30%: CC(=O)Nc1cc(-c2cc(C(c3ccc(Cl)cc3)N(C)C3CN(C)C3)c(-c3nnc[nH]3)s2)ccn1 (centres unmarked)
Yes

Determine whether this compound has inhibition at 1.1 µM no lower than 30%: Cn1c(Cc2nc(N3CCOCC3)sc2C(=O)O)cc2ccccc21
No

Determine whether this compound has inhibition at 1.1 µM no lower than 30%: OC(c1ccc(-c2ccncc2)cc1)c1cc(-c2ccncc2)sc1-c1nnc[nH]1 (centres unmarked)
No

Determine whether this compound has inhibition at 1.1 µM no lower than 30%: OC(c1ccc2c(c1)OCO2)c1cc(-c2ccncc2)sc1-c1nnc[nH]1 (centres unmarked)
No

Determine whether this compound has inhibition at 1.1 µM no lower than 30%: COc1ccc(C(O)c2cc(-c3ccncc3)sc2-c2nnc[nH]2)c(C)c1 (centres unmarked)
No

Determine whether this compound has inhibition at 1.1 µM no lower than 30%: OC(c1ccc2ncccc2c1)c1cc(-c2ccncc2)sc1-c1nnc[nH]1 (centres unmarked)
Yes

Determine whether this compound has inhibition at 1.1 µM no lower than 30%: CC(=O)Nc1cc(-c2sc(-c3nnc[nH]3)c(C(c3ccc(Cl)cc3)N3CCNCC3)c2C#N)ccn1 (centres unmarked)
Yes

Determine whether this compound has inhibition at 1.1 µM no lower than 30%: OC(c1cccc(-c2ccncc2)c1)c1cc(-c2ccncc2)sc1-c1nnc[nH]1 (centres unmarked)
No

Determine whether this compound has inhibition at 1.1 µM no lower than 30%: OC(c1ccccc1C(F)(F)F)c1cc(-c2ccncc2)sc1-c1nnc[nH]1 (centres unmarked)
No

Determine whether this compound has inhibition at 1.1 µM no lower than 30%: CC(=O)Nc1cc(-c2nc(C(c3ccc(Cl)cc3)N3CCNCC3)c(-c3nnc[nH]3)s2)ccn1 (centres unmarked)
Yes

Determine whether this compound has inhibition at 1.1 µM no lower than 30%: O=C(Nc1cc(-c2cc(C(c3ccc(Cl)cc3)N3CCNCC3)c(-c3nnc[nH]3)s2)ccn1)C1CC1 (centres unmarked)
Yes

Determine whether this compound has inhibition at 1.1 µM no lower than 30%: N#Cc1c(N2CCOCC2)sc(C(N)=O)c1Cc1ccc2ccccc2c1
Yes

Determine whether this compound has inhibition at 1.1 µM no lower than 30%: CC(=O)Nc1cc(-c2cc(C(O)(c3ccc(Cl)cc3)C3CCN(C)CC3)c(-c3nnc[nH]3)s2)ccn1 (centres unmarked)
Yes
